# Tgt: human MMP-9 (Homo sapiens, UniProt P14780)
# Construct: purchased Yagai, Japan
# Sequence (P14780 94-707): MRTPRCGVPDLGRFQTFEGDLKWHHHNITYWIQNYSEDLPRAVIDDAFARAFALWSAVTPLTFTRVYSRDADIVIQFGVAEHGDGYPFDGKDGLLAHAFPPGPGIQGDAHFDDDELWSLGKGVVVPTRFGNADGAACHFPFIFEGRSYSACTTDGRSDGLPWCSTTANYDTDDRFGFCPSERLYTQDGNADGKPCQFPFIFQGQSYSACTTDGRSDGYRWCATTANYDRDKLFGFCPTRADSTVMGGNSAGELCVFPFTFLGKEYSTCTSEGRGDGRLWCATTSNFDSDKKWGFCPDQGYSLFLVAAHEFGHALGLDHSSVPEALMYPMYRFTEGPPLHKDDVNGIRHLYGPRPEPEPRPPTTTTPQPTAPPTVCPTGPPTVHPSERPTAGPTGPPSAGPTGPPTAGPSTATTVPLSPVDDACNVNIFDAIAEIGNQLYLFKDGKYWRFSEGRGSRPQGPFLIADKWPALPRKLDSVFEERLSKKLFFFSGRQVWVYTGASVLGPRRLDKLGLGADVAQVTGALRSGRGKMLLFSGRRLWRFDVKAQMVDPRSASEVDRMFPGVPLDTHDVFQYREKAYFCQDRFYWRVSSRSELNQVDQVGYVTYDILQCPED
# Procedure Summary: Inhibitory activity of human MMP-9
# Format: biochemical
# Details: commercial kit (Yagai, Japan); degradation of FITC-labeled bovine type IV collagen after incubation for 4 hours at 42° C.
Observable: IC50
Kindly format the answer as number then unit.

Assign IC50 to the following record: COc1ccc(-c2ccc(C3(CC(=O)NO)CCN(S(C)(=O)=O)CCS3(=O)=O)s2)cc1 (stereo not shown) 2.85 nM

The reported numbers originate from patent US6967197B2.
